Assay: LNCaP cell loss by flow event count, confirmation, cytotoxicity control for prostate differentiation activator project, single point (AID 1076);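 also: counts scatter-gated live cells after medium removal discards detached dead cells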
Details: flow cytometry event count, 4 d, at 100 µM, stronger effect = lower value
Result type: cell event count
A bare number is all that is needed in reply.

response.value for O=C(NCC1CCCO1)C1CC(c2ccc(Cl)c(Cl)c2)=NO1 (stereo not given) (field: cell event count) = 85

// sample "Cc1nc2nc(C)c(CCC(=O)NCCCN3CCN(c4cccc(Cl)c4)CC3)c(C)n2n1" , its cell event count was 43

Entry Cc1oc(-c2ccc(Cl)cc2)nc1CN1CCCC(C(=O)NCc2ccccn2)C1 (stereo not given) ; cell event count = 34

The measured cell event count associated with CC(=O)c1cccc(NC2c3ccccc3C(=O)N2Cc2ccc3c(c2)OCO3)c1 (stereo not given) reads 121

# cell event count of "N=c1c(C(=O)NC2CCCC2)cc2c(=O)n3ccccc3nc2n1C1CCCC1" = 12

Entry under test: "Cc1ccc2c(c1)-c1c(cnn1CC(=O)Nc1ccccc1N1CCN(C)CC1)CO2" . Its cell event count was 73

Looking up "Cc1oc(-c2ccccc2F)nc1CN1CCC(C(=O)NCc2cccnc2)CC1" , I found its cell event count recorded as 290

Input Cc1oc(-c2cccc(Cl)c2)nc1CN1CCCC(C(=O)NCCCN2CCOCC2)C1 (stereo not given) . Output cell event count: 22

The recorded cell event count for Cc1oc(-c2ccc(Cl)cc2)nc1CN1CCCC(C(=O)NCc2ccco2)C1 (stereo not given) is 27

# cell event count of COc1cc(C2C3=C(Nc4ncnn42)c2ccccc2CC3)cc(OC)c1OC (stereo not given) = 295

// cell event count value for "Cc1ccnc(NC(=O)CCC(=O)N(CC(=O)NC2CCCCC2)c2cccc(C)c2C)c1" : 27

Just so you know, measured cell event count for "Cc1cc(N2CCC(N(C)C3CCCC3)CC2)nc2cc(O)ccc12" came out at 26

Consider "CCN1CCN(C(=O)C2CCN(Cc3nc(-c4cccc(Cl)c4)oc3C)CC2)CC1" . Its measured cell event count is 12

Record "CCOc1cccc2cc(-c3cn4cc(C)ccc4n3)c(=O)oc12" . Reported cell event count: 267

What the record says about CCOC(=O)N1CCC(NC(=O)C2CCCN(Cc3nc(-c4cccc(Cl)c4)oc3C)C2)CC1 (stereo not given) : cell event count is 33

The compound identified as "Cc1cc(=O)oc(C)c1C(=O)NCCCN1CCN(c2ccccc2F)CC1" registered its cell event count at 232

Lab book: cell event count of "CCCCC(=O)NCCc1ccc(S(N)(=O)=O)cc1" noted as 238

# cell event count (compound: "Cc1oc(-c2cccc(Cl)c2)nc1CN1CCC(C(=O)NCCCN2CCCC2=O)CC1" ) is 166

The compound "O=C(CCn1c(=O)oc2ccccc21)NCCCN1CCN(c2ccc(F)cc2)CC1" showed cell event count equal to 213

Lab note: CC(C)N1CCC2(CC1)N=C(c1ccc3c(c1)OCO3)CC(c1cc(Cl)ccc1O)N2 (stereo not given) gave cell event count of 46

What the record says about Cc1ccc(OCC(O)Cn2c(=N)n(CCN3CCCCC3)c3ccccc32)cc1 (stereo not given) : cell event count is 13

// cell event count value for "Cc1oc(-c2cccc(Cl)c2)nc1CN1CCC(C(=O)NCc2ccco2)CC1" : 100

For record "Cc1oc(-c2ccccc2F)nc1CN1CCC(C(=O)NC2CCCCCCC2)CC1" the listed cell event count is 6

Reported cell event count for "Cc1ccc(Nc2cc(=O)n(C3CCCCC3)c(=O)[nH]2)cc1C" was 3

For reference, reported cell event count for "COC(=O)c1ccccc1S(=O)(=O)N(Cc1cc2cc3c(cc2[nH]c1=O)OCO3)C1CCCCC1" stands at 8

The recorded cell event count for entry "COc1ccc(OC)c(N=Cc2c(O)[nH]c3ccccc23)c1" equals 207

cell event count measured on "COc1ccc(Cc2noc(-c3ccc(C)cc3)n2)cc1" = 70

Please fill in: cell event count reported for COc1ccc(N2CCN(CCCNC(=O)CC3Oc4ccc(C)cc4NC3=O)CC2)cc1 (stereo not given) = 290

# cell event count (compound: "Nc1ccccc1NC(=O)c1ccccc1N" ) is 236

Notebook: Cc1cccc(-c2nc(CN3CCCC(C(=O)NC4CCCC4)C3)c(C)o2)c1 (stereo not given) , cell event count read as 29

The recorded cell event count for entry COc1ccc(CN2C(=O)C(O)(CC(=O)c3c(C)n[nH]c3C)c3ccccc32)cc1OC (stereo not given) equals 284

Notebook: "CCn1c(=O)cc(OCC(=O)O)c2ccccc21" , cell event count read as 22

The compound listed as Cc1ccc(S(=O)(=O)NCCCCC(NC(=O)OC(C)(C)C)C(=O)O)cc1 (stereo not given) (tested in a mixture with another compound) has a reported cell event count of 203

For "CCOC(=O)N1CCN(C(=O)CN(c2cccc(C(F)(F)F)c2)S(=O)(=O)c2ccccc2)CC1" the compound record lists cell event count as 137

Notebook: "CCOc1ccc(-n2cc(C(=O)N3CCC(C)CC3)c3cc(OC)c(OC)cc3c2=O)cc1" , cell event count read as 202

====

Experiment: LNCaP cell loss by flow event count, confirmation, cytotoxicity control for prostate differentiation activator project, single point (AID 1076);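 also: counts scatter-gated live cells after medium removal discards detached dead cells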
Conditions: flow cytometry event count, 4 d, event count, at 10 µM, stronger effect = lower value
Decision: cell event count beneath 100 gives Condition met; cell event count meeting or exceeding 100 gives Condition not met.

Does this compound meet the criterion cell event count < 100? "Cc1cc(NC(=O)c2noc3c2CCc2ccccc2-3)n(-c2ccccc2)n1"
Condition not met

Say whether its cell event count is strictly beneath 100. Entry: "COc1ccc(-c2ccc(-c3noc(-c4ccccc4)n3)c(OC)n2)cc1"
Condition met

Take the compound Cc1cc(N2C(=O)C3C4C=CC(C4)C3C2=O)ccc1Br (configuration not stated) and say whether its cell event count is less than 100.
Condition met

Please let me know if "O=C(Cn1c(=O)[nH]c2ccsc2c1=O)NC1CCCCCC1" shows cell event count below 100.
Condition not met

Determine if "O=C(c1ccc(COCC(F)(F)F)o1)N1CCCCCC1" shows cell event count strictly lower than 100.
Condition not met

Does this compound meet the criterion cell event count < 100? "Cc1nnc(NCc2n[nH]c(=O)c3ccccc23)c2ccccc12"
Condition not met

Decide: cell event count of "COc1ccc(Cc2n[nH]c(=O)c3ccccc23)cc1OC" strictly below 100?
Condition not met

Determine if CCOC(=O)C1CCN(c2nc3ccccc3nc2C(C#N)C(=O)OCCOC)CC1 (configuration not stated) shows cell event count strictly lower than 100.
Condition not met

Item "COc1ccc(OC)c(N=Cc2c(O)[nH]c3ccccc23)c1" : cell event count beneath 100, strictly?
Condition not met

For "COc1ccc2cc3c(N)nn(C(=O)Cc4ccccc4OC)c3nc2c1" , is the recorded cell event count below the cut-off of 100?
Condition not met

Is the reported cell event count for "CN(C)c1ccc(-c2nn3c(-c4ccc(Cl)cc4Cl)nnc3s2)cc1" strictly below 100?
Condition met

Would you kindly verify if cell event count of "CCc1ccc(-c2nc(CN3CCC(C(=O)NCCc4ccc(OC)c(OC)c4)CC3)c(C)o2)cc1" is strictly less than 100?
Condition not met

Here's an entry: O=C(NCCCN1CCN(c2ccccc2F)CC1)C1CCC(=O)N1C1CCCC1 (configuration not stated) . Is its cell event count below 100?
Condition met

Take the compound "Cc1oc(-c2ccccc2F)nc1CN1CCC(C(=O)NCc2ccco2)CC1" and say whether its cell event count is less than 100.
Condition not met

Strictly below 100: is that where cell event count of "CCc1ccc(-c2nc(CN3CCC(C(=O)NCCN(CC)c4ccccc4)CC3)c(C)o2)cc1" sits?
Condition not met

Take the compound "COc1ccc(CCN2CCC(Nc3nc4ccccc4n3Cc3ccc(F)cc3)CC2)cc1" and say whether its cell event count is less than 100.
Condition not met

In plain terms, does "CCn1c(=O)cc(SCC(=O)NCCN2CCN(Cc3ccccc3)CC2)c2ccccc21" come in under 100 for cell event count?
Condition not met

====

Experiment: LNCaP cell loss by flow event count, confirmation, cytotoxicity control for prostate differentiation activator project, single point (AID 1076);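 also: counts scatter-gated live cells after medium removal discards detached dead cells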
Conditions: flow cytometry event count, 4 d, at 100 µM
The source made the active and inactive calls.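 Rule for the calls: active = cell event count below 40, meaning activity score above 60 where score is 100 minus count; inactive = the rest.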
Returns: one label drawn from 1 for active, 0 for inactive

What classification did Cc1cc(=O)n2nc(N3CCCC3C(=O)NCc3ccccn3)sc2n1 (stereo not drawn) end up with in this test?
0

// param item: "Nc1ccc(-c2nc3c(Cl)c(N)ccc3[nH]2)cc1" ; yields the recorded call
0

Could you kindly confirm the outcome this assay logged for "Cc1nc2ncnn2c(C)c1CCC(=O)NCCCN1CCN(c2cccc(Cl)c2)CC1" ?
0

What was the test verdict on "O=C(Cn1cnc2ccccc2c1=O)NCCC(=O)N1CCN(c2ccccc2)CC1" ?
0

Please let me know the test result on file for "Cn1c(=O)[nH]c(=O)c2c1nc(Br)n2CCCSc1nc2ccccc2o1" .
0

Tell me the recorded outcome of this test for "CCN(CC)CCNC(=O)c1cc2c(-c3ccc(Cl)cc3)nn(C)c2s1" .
1

Just curious, what result did N#CC(C(=O)c1ccco1)c1ccccn1 (stereo not drawn) get here?
1

Please share the test call associated with "COc1ccc(-c2ccc(-c3noc(-c4ccccc4)n3)c(OC)n2)cc1" .
1

Can you look up the reported call for "COc1cccc(-c2cc(C(=O)N3CCN(C(c4ccccc4)c4ccccc4)CC3)no2)c1" for me?
0

Hi team, can someone confirm the assay call for "CCOC(=O)N1CCC(=C2c3ccc(Cl)cc3CCc3cccnc32)CC1" ?
0

Query: recorded result category for "O=S(=O)(Nc1cccc2ncccc12)c1cccs1" in this test
0

// outcome(item) with item = "COc1ccc(C)cc1NC(=O)CCC(=O)Nc1ccc2nc(N3CCN(C)CC3)cc(C)c2c1"
0

Test call for this molecule, please: "CCOC(=O)N1CCN(C(=O)C2CCN(Cc3nc(-c4ccccc4C)oc3C)CC2)CC1"
0

Dear colleague, could you share the recorded outcome for "O=C(CCN1C(=O)COc2ccccc21)NCCCN1CCN(c2ccc(F)cc2)CC1" when you have a moment?
0

Check the results log: what was the call for "Cc1oc(-c2ccccc2F)nc1CN1CCC(C(=O)NCCC2=CCCCC2)CC1" ?
0

GET /call?item= "CCSc1nnc(Cn2c(=O)sc3ccccc32)n1-c1ccccc1C" returns the recorded outcome of this test.
0

How did this test come out for "CCN(CC)CCCNC(=O)c1cc(-c2cccc(Cl)c2)on1" ?
0

Given "CCOc1ccc(C(=O)Nc2ccc(Cl)cn2)cc1Cl" , state the outcome it received in this test.
0
